System: lacZ under control of the tetA promoter (PtetA) in E. coli KM3
Type: cell-based
Conditions: Table 6, reverse repressor hits; tribenuron, same plate assay format (20 ppm)
Measured relative β-galactosidase activity, inducer Tb, listed per entry.
When you answer, write just the number.

molecule | observed.result
L1-21: library L1 hit with reverse repressor activity (SEQ ID NO: 1206-1213) (protein, rSuR L1-21) MGSRLDKSKVINSALELLNEVGIEGLTTRKLAQKLGVEQPTLYWHVKNKRALLDALAIEMLDRHATHFCPLEGESWQDFLRNNAKSFRCALLSHRDGAKVCLGTAGTEKQYETLENCLAFLCQQGFSLENALYARSAVVCFTLGCVLFDQEMQVAKEERETPTTDSMPPLLRQAAELLDHQGAEPAFLFGLELIICGLEKQLKCESGS | 2.13

Exercise: So what's the measured relative β-galactosidase activity, inducer Tb for this one? L1-41: library L1 hit with reverse repressor activity (SEQ ID NO: 1206-1213) (protein, rSuR L1-41) MGSRLDKSKVINSALELLNEVGIEGLTTRKLAQKLGVEQPTLYWHVKNKRALLDALAIEMLDRNQTHFCPLEGESWQDFLRNNAKSWRCALLSHRDGAKVMLGTRNTEKQYETAENGLAFLCQQGFSLENALYACRAVWTFTLGCVLDDQETQVAKEERETPTSDSMPPLLRQAMELKDHQGAEPAFLFGLELIICGLEKQLKCESGS
Key: 1.41
